Source of measurements: patent US20070117743A1

System: A-549
Procedure Details: SRB colorimetric assay of cell growth and viability, A-549
Format: cell-based, human
Test Conditions: 48 hours exposure; read-out: LC50 A-549
Protocol: The finality of this assay is to interrupt the growth of a “in vitro” tumor cell culture by means a continued exhibition of the cells to the sample to be testing. […] Cells are seeded in 96 well microtiter plates, at 5×10^3 cells per well in aliquots of 195 μL medium, and they are allowed to attach to the plate surface by growing in drug free medium for 18 hours. […] Optical densities are read on a automated spectrophotometric plate reader at a single wavelength of 490 nm. […]
Where a SMILES comes first, the peptide text is derived from it. Bridges are numbered along the chain shown (N, C = ends). [ ]: non-standard residue; d: D form. The star is where a group is joined. d(aIle) = CC[C@H](C)[C@@H](N)C(=O)O; d(aThr) = C[C@@H](O)[C@@H](N)C(=O)O; Hexanoyl(5-Me) = CC(C)CCCC(=O)*; Orn = NCCC[C@H](N)C(=O)O; Dhb = C/C=C(\N)C(=O)O

Compound	System Name	CC50 (µM)
C/C=C1\NC(=O)[C@H](Cc2ccccc2)NC(=O)[C@@H](C(C)C)NC(=O)[C@@H]([C@@H](C)CC)NC(=O)[C@H](NC(=O)[C@H](NC(=O)[C@H](CCCN)NC(=O)[C@H]2CCCN2C(=O)[C@H](NC(=O)[C@@H](NC(=O)[C@@H](NC(=O)[C@H](NC(=O)CCCCC(C)(F)F)C(C)C)[C@@H](C)O)C(C)C)C(C)C)[C@@H](C)CC)[C@@H](C)OC(=O)[C@H](C(C)C)NC1=O [Compound 28, [6,6-dFHep^14]-KF]	A-549	4.25
C/C=C1\NC(=O)[C@H](Cc2ccccc2)NC(=O)[C@@H](C(C)C)NC(=O)[C@@H]([C@@H](C)CC)NC(=O)[C@H](NC(=O)[C@H](NC(=O)[C@H](CCCN)NC(=O)[C@H]2CCCN2C(=O)[C@H](NC(=O)[C@@H](NC(=O)[C@@H](NC(=O)[C@H](NC(=O)CCCCCCC)C(C)C)[C@@H](C)O)C(C)C)C(C)C)[C@@H](C)CC)[C@@H](C)OC(=O)[C@H](C(C)C)NC1=O [Compound 18, [Oct^14]-KF]	A-549	1.21
C/C=C1\NC(=O)[C@H](Cc2ccccc2)NC(=O)[C@@H](C(C)C)NC(=O)[C@@H]([C@@H](C)CC)NC(=O)[C@H](NC(=O)[C@H](NC(=O)[C@H](CCCN)NC(=O)[C@H]2CCCN2C(=O)[C@H](NC(=O)[C@@H](NC(=O)[C@H](C)NC(=O)CCCC(C)C)C(C)C)C(C)C)[C@@H](C)CC)[C@@H](C)OC(=O)[C@H](C(C)C)NC1=O [Compound 52, [Ala^12, noD-Val^13]-KF] ({Hexanoyl(5-Me)}-AV[dV][dP][Orn][d(aIle)][d(aThr)][d(aIle)][dV]F[Dhb]V; ester 7-C)	A-549	7.41
C/C=C1\NC(=O)[C@H](Cc2ccccc2)NC(=O)[C@@H](C(C)C)NC(=O)[C@@H]([C@@H](C)CC)NC(=O)[C@H](NC(=O)[C@H](NC(=O)[C@H](CCCN)NC(=O)[C@H]2CCCN2C(=O)[C@H](NC(=O)[C@@H](NC(=O)[C@@H](NC(=O)[C@H](NC(=O)CCCC(C)C)C(C)C)C(C)C)C(C)C)C(C)C)[C@@H](C)CC)[C@@H](C)OC(=O)[C@H](C(C)C)NC1=O [Compound 6, [Val^12]-KF] ({Hexanoyl(5-Me)}-[dV]VV[dV][dP][Orn][d(aIle)][d(aThr)][d(aIle)][dV]F[Dhb]V; ester 8-C)	A-549	2.36
C/C=C1\NC(=O)[C@H](Cc2ccccc2)NC(=O)[C@@H](C(C)C)NC(=O)[C@@H]([C@@H](C)CC)NC(=O)[C@H](NC(=O)[C@H](NC(=O)[C@H](CCCN)NC(=O)[C@H]2CCCN2C(=O)[C@H](NC(=O)[C@@H]2CCCN2C(=O)[C@@H](NC(=O)[C@H](NC(=O)CCCC(C)C)C(C)C)[C@@H](C)O)C(C)C)[C@@H](C)CC)[C@@H](C)OC(=O)[C@H](C(C)C)NC1=O [Compound 47, [Pro^11]-KF] ({Hexanoyl(5-Me)}-[dV]TP[dV][dP][Orn][d(aIle)][d(aThr)][d(aIle)][dV]F[Dhb]V; ester 8-C)	A-549	6.78
C/C=C1\NC(=O)[C@H](Cc2ccccc2)NC(=O)[C@@H](C(C)C)NC(=O)[C@@H]([C@@H](C)CC)NC(=O)[C@H](NC(=O)[C@H](NC(=O)[C@H](CCCN)NC(=O)[C@H]2CCCN2C(=O)[C@H](NC(=O)[C@@H](NC(=O)CNC(=O)CCCC(C)C)C(C)C)C(C)C)[C@@H](C)CC)[C@@H](C)OC(=O)[C@H](C(C)C)NC1=O [Compound 53, [Gly^12, noD-Val^13]-KF] ({Hexanoyl(5-Me)}-GV[dV][dP][Orn][d(aIle)][d(aThr)][d(aIle)][dV]F[Dhb]V; ester 7-C)	A-549	7.49
C/C=C1\NC(=O)[C@H](Cc2ccccc2)NC(=O)[C@@H](C(C)C)NC(=O)[C@@H]([C@@H](C)CC)NC(=O)[C@H](NC(=O)[C@H](NC(=O)[C@H](CCCN)NC(=O)[C@H]2CCCN2C(=O)[C@H](NC(=O)[C@@H](NC(=O)[C@@H](NC(=O)[C@@H](C)NC(=O)CCCC(C)C)[C@@H](C)O)C(C)C)C(C)C)[C@@H](C)CC)[C@@H](C)OC(=O)[C@H](C(C)C)NC1=O [Compound 34, [D-Ala^13]-KF]	A-549	5.17
C/C=C1\NC(=O)[C@H](Cc2ccccc2)NC(=O)[C@@H](C(C)C)NC(=O)[C@@H]([C@@H](C)CC)NC(=O)[C@H](NC(=O)[C@H](NC(=O)[C@H](CCCCN)NC(=O)[C@H]2CCCN2C(=O)[C@H](NC(=O)[C@@H](NC(=O)[C@@H](NC(=O)[C@H](NC(=O)CCCC(C)C)C(C)C)[C@@H](C)O)C(C)C)C(C)C)[C@@H](C)CC)[C@@H](C)OC(=O)[C@H](C(C)C)NC1=O [Compound 5, [Lys^8]-KF]	A-549	0.582
C/C=C1\NC(=O)[C@H](Cc2ccccc2)NC(=O)[C@@H](C(C)C)NC(=O)[C@@H]([C@@H](C)CC)NC(=O)[C@H](NC(=O)[C@H](NC(=O)[C@H](CCCN)NC(=O)[C@H]2CCCN2C(=O)[C@H](NC(=O)[C@H](CCC(N)=O)NC(=O)[C@@H](NC(=O)[C@H](NC(=O)CCCC(C)C)C(C)C)[C@@H](C)O)C(C)C)[C@@H](C)CC)[C@@H](C)OC(=O)[C@H](C(C)C)NC1=O [Compound 48, [Gln^11]-KF] ({Hexanoyl(5-Me)}-[dV]TQ[dV][dP][Orn][d(aIle)][d(aThr)][d(aIle)][dV]F[Dhb]V; ester 8-C)	A-549	6.64
